Experiment: Metabolic stability in human liver microsomes at 10 uM after 30 mins
Type: ADME
Details: read-out: Stability
measurementLabel: remaining at 0.5 h, 10 µM

### Prompt Sample `Cc1nn(C)cc1-c1nc2ncc(Cl)c(Oc3ccc(C(=O)NC4CCC4)cc3)c2[nH]1` — what was its remaining at 0.5 h, 10 µM?
### Response 22%

###

Target: Aurora kinase A (Homo sapiens)
Sequence (O14965 whole entry): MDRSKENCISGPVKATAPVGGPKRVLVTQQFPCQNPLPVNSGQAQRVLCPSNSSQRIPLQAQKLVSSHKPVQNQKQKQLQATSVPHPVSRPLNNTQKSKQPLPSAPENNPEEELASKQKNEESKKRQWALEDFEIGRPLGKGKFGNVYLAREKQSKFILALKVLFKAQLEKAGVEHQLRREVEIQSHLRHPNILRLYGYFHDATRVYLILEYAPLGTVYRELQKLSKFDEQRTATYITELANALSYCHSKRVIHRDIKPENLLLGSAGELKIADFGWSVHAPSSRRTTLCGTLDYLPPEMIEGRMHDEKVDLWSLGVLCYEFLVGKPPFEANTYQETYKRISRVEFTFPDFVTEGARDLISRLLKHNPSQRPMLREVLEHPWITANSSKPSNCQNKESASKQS
Assay: Inhibition of N-terminal HIS-tagged aurora-A (unknown origin) using 5FAM-LRRASLG-CONH2 as substrate after 60 mins
measurementLabel: IC50 (nM)
Reply numerically in nM, unit not repeated.

INSERT INTO results (linenotation, resultnumber) VALUES
  ('Cc1nn(C)cc1-c1nc2c(Oc3ccc(C(=O)Nc4cccnc4)cc3)c(Cl)cnc2[nH]1', 58),
  ('CC(=O)NC[C@@H]1CCN(c2c(Cl)cnc3nc(-c4cn(C)nc4C)[nH]c23)C1', 9),
  ('Cc1cc(NC(=O)c2ccc(Oc3c(Cl)cnc4nc(-c5cn(C)nc5C)[nH]c34)cc2)on1', 71),
  ('CC(=O)N[C@H]1CCN(c2c(Cl)cnc3[nH]c(-c4cn(C)nc4C)nc23)C1', 270);

Pending compound:
### Prompt Sample `Cc1nn(C)cc1-c1nc2c(N(C)Cc3ccccc3)c(Cl)cnc2[nH]1` — what was its IC50?
### Response 255

###

Target: UniProtKB O14965
Experiment: Inhibition of autophosphorylation of N-terminal Myc tagged aurora-A at T288 (unknown origin) after 2 hrs
measurementLabel: IC50 (nM)
Reply numerically in nM, unit not repeated.

### Prompt Requested read-out IC50, target or system UniProtKB O14965, entry `Cc1nn(C)cc1-c1nc2c(Nc3ccc(C(=O)Nc4ccccc4)cc3)c(Cl)cnc2[nH]1`
### Response 320

###

# IC50 annotations
Molecular target: Aurora kinase B (Homo sapiens)
Sequence (Q96GD4 whole entry): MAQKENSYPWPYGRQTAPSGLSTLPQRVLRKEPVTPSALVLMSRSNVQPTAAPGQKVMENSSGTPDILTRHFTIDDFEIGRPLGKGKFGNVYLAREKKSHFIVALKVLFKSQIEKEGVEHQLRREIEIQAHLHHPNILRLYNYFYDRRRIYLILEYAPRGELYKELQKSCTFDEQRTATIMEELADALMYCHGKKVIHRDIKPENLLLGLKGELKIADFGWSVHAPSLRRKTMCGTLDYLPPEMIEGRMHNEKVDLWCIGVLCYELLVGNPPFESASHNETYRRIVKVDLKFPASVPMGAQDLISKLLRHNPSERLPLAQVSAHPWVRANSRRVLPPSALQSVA
Experiment: Inhibition of full-length aurora-B (unknown origin) using 5FAMLRRASLG-CONH2 as substrate after 60 mins
Reply numerically in nM, unit not repeated.

Answered examples (3):
INSERT INTO measurements (linenotation, unitssymbol, resultnumber) VALUES
  ('Cc1nn(C)cc1-c1nc2c(N(C)Cc3ccccc3)c(Cl)cnc2[nH]1', 'nM', 169),
  ('Cc1nn(C)cc1-c1nc2c(Oc3ccc(C(=O)Nc4ccccc4)cc3)c(Cl)cnc2[nH]1', 'nM', 12700),
  ('CC(=O)N[C@H]1CCN(c2c(Cl)cnc3[nH]c(-c4cn(C)nc4C)nc23)C1', 'nM', 80);

### Prompt Sample `CC(=O)NC[C@@H]1CCN(c2c(Cl)cnc3nc(-c4cn(C)nc4C)[nH]c23)C1` — what was its IC50?
### Response 7

### Prompt Now the molecule `Cc1nn(C)cc1-c1nc2ncc(Cl)c(N3CCC[C@@H](CNS(C)(=O)=O)C3)c2[nH]1`
### Response 17
